test: stimulators of insulin release from INS-1E, primary screen, cell-based, 5 mM glucose, NPC library (AID 1117329); conditions: rat INS-1E insulin secretion, at 10 µM, stronger effect = higher value; further: reference of the scale not given here
Endpoint: insulin secretion stimulation (%)
One number for each entry, in %.

Example entries begin here.
CC[C@@H](CO)NCCN[C@@H](CC)CO | 2.6
O=C(NCC(O)CO)c1c(I)c(C(=O)NCC(O)CO)c(I)c(N(CCO)C(=O)CO)c1I (stereo not drawn) | 2.2
CC1=C(C(=O)OC(C)C)C(c2cccc([N+](=O)[O-])c2)C(C(=O)OC2CN(C(c3ccccc3)c3ccccc3)C2)=C(N)N1 (stereo not drawn) | 5.2
CN(C)CCCOc1nn(Cc2ccccc2)c2ccccc12 | 86.5

For each listed entry, give its insulin secretion stimulation.
1. Nc1cccc2c1CN(C1CCC(=O)NC1=O)C2=O (stereo not drawn)
2. CCc1cccc(N(C)C(N)=Nc2cccc3ccccc23)c1
3. NC(=O)c1cn(Cc2c(F)cccc2F)nn1
4. CC(C)(CO)[C@@H](O)C(=O)NCCC(=O)NCCSSCCNC(=O)CCNC(=O)[C@H](O)C(C)(C)CO
5. CCCC(=O)Nc1ccc(OCC(O)CNC(C)C)c(C(C)=O)c1 (stereo not drawn)

[1.3, 60.2, -2.7, 0.15, 0.7]

Reference source: PubChem BioAssay
